- Tested on: MALME-3M melanoma
- EXPERIMENTAL_DETAILS: NCI tumour cell line growth inhibition, 48 h
Item-by-item account of TGI
Respond with the bare value in µM.

Would you please look over these solved cases?
INSERT INTO measurements (compound, study_system, experimental_endpoint, scale_unit, test_value) VALUES
  ('CC(C)[NH-].CC(C)[NH-].O.O.[Cl][Pt+2][Cl]', 'MALME-3M melanoma', 'TGI', 'µM', 57.8),
  ('CC(C)=CCCC1(Sc2ccccc2)C(=O)OCC1C=C(C)C (stereo unspecified)', 'MALME-3M melanoma', 'TGI', 'µM', 40.7);

Turning now to a further record.
Identify measured TGI associated with COc1ccc2c3c(c4ccccc4cc13)C(=O)N(CCN(C)CCN)C2=O
1.27
